Listed compounds paired with reported half-life
assay: Pharmacokinetics of different salt forms of ocinaplon after a single oral dose; assay type: in vivo; conditions: dog, plasma, 30 mg/kg; male beagle dogs; single oral dose 30 mg Base/kg; 0.5% methylcellulose suspension; mean (CV %), N = 5
Structures can show the parent of a compound that is named as a salt.
Enter your answer as a number in min; do not include the unit.

Q) Recorded half-life of Cl.Cl.O=C(c1ccccn1)c1cnn2c(-c3ccncc3)ccnc12 [Ocinaplon di HCl salt] , please.
A) 63

***
Q) Recorded half-life of O=C(c1ccccn1)c1cnn2c(-c3ccncc3)ccnc12 [Ocinaplon disulfate salt] , please.
A) 57

Q) Field entry: Br.Br.O=C(c1ccccn1)c1cnn2c(-c3ccncc3)ccnc12 [Ocinaplon di HBr]
A) 49.8

The measurements presented in this section are drawn from patent US20080045547A1.
